Recorded measurements of Activity, one per entry
- system name: Melanocortin receptor 5 (Homo sapiens, UniProt P33032)
- Sequence (P33032 whole entry): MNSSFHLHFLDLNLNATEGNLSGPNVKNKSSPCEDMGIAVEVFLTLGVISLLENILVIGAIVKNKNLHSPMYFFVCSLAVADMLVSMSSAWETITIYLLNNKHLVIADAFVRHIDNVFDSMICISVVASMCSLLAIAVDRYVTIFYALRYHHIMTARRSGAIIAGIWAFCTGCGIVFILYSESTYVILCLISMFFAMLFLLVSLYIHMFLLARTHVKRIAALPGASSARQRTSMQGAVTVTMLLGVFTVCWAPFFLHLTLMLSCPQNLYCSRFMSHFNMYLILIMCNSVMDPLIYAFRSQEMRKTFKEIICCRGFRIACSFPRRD
- measurement description: Agonist activity at human MC5R expressed in CHO cells assessed as cAMP release at 10 uM relative to alpha-MSH
- Assay type: functional, cell-based
observation type: Activity (%)

chemical string	system name	test result
CC[C@H](NC(C)=O)c1cc(Cl)ccc1C1CCN(C(=O)[C@H]2CN(C(C)(C)C)C[C@@H]2c2ccc(C(F)(F)F)cc2)CC1	Melanocortin receptor 5 (Homo sapiens, UniProt P33032)	11
CC[C@H](NC(C)=O)c1cc(Cl)ccc1C1CCN(C(=O)[C@@H]2CN(C(C)(C)C)C[C@H]2c2ccc3ccccc3c2)CC1	Melanocortin receptor 5 (Homo sapiens, UniProt P33032)	35
CC[C@H](NC(C)=O)c1cc(Cl)ccc1C1CCN(C(=O)[C@@H]2CN(C(C)(C)C)C[C@H]2c2ccc(Br)cc2F)CC1	Melanocortin receptor 5 (Homo sapiens, UniProt P33032)	88
CC[C@H](NC(C)=O)c1cc(Cl)ccc1C1CCN(C(=O)[C@H]2CN(C(C)(C)C)C[C@@H]2c2ccc(Br)cc2F)CC1	Melanocortin receptor 5 (Homo sapiens, UniProt P33032)	30

---

- system name: Melanocortin receptor 3 (Homo sapiens, UniProt P41968)
- Sequence (P41968 whole entry): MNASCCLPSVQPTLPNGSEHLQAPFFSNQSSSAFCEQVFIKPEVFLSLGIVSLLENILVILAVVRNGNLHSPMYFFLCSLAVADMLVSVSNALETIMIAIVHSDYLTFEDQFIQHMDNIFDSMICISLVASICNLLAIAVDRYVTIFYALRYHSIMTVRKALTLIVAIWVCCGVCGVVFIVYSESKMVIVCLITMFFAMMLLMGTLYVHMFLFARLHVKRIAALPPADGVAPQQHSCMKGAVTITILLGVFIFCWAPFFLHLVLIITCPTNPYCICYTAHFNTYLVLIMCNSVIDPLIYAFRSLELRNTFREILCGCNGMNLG
- measurement description: Agonist activity at human MC3R expressed in CHO cells assessed as cAMP release at 10 uM relative to alpha-MSH
- Type: functional, cell-based

chemical string	system name	Activity, %
CC[C@H](NC(C)=O)c1cc(Cl)ccc1C1CCN(C(=O)[C@@H]2CN(C(C)(C)C)C[C@H]2c2ccc3ccccc3c2)CC1	Melanocortin receptor 3 (Homo sapiens, UniProt P41968)	16
CC[C@H](NC(C)=O)c1cc(Cl)ccc1C1CCN(C(=O)[C@@H]2CN(C(C)(C)C)C[C@H]2c2ccc(Cl)cc2F)CC1	Melanocortin receptor 3 (Homo sapiens, UniProt P41968)	92
CC[C@H](NC(C)=O)c1cc(Cl)ccc1C1CCN(C(=O)[C@@H]2CN(C(C)(C)C)C[C@H]2c2ccc(OC)cc2F)CC1	Melanocortin receptor 3 (Homo sapiens, UniProt P41968)	91
CC[C@H](NC(C)=O)c1cc(Cl)ccc1C1CCN(C(=O)[C@H]2CN(C(C)(C)C)C[C@@H]2c2ccc(C(F)(F)F)cc2)CC1	Melanocortin receptor 3 (Homo sapiens, UniProt P41968)	8
CC[C@H](NC(C)=O)c1cc(Cl)ccc1C1CCN(C(=O)[C@@H]2CN(C(C)(C)C)C[C@H]2c2ccc(Br)cc2F)CC1	Melanocortin receptor 3 (Homo sapiens, UniProt P41968)	88
CC[C@H](NC(C)=O)c1cc(Cl)ccc1C1CCN(C(=O)[C@H]2CN(C(C)(C)C)C[C@@H]2c2ccc(Br)cc2F)CC1	Melanocortin receptor 3 (Homo sapiens, UniProt P41968)	38
CC[C@H](NC(C)=O)c1cc(Cl)ccc1C1CCN(C(=O)[C@H]2CN(C(C)(C)C)C[C@@H]2c2ccc(Cl)cc2Cl)CC1	Melanocortin receptor 3 (Homo sapiens, UniProt P41968)	5

---

Notes on IC50 obtained with Melanocortin receptor 4 (Rattus norvegicus, UniProt P70596).
Sequence (P70596 whole entry): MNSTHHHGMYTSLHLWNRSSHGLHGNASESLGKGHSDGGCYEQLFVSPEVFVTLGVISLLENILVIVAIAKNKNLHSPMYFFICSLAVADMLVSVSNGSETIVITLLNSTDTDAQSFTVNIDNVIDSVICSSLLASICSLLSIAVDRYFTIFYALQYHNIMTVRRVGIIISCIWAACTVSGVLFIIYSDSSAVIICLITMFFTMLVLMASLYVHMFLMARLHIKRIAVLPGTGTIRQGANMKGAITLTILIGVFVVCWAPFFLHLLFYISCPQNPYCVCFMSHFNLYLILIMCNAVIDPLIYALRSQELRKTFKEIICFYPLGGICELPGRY
observation type: IC50

chemical string	observation type	test result
CC[C@H](NC(C)=O)c1cc(Cl)ccc1C1CCN(C(=O)[C@H]2CN(C(C)(C)C)C[C@@H]2c2ccc(C(F)(F)F)cc2)CC1	IC50	1 nM
CC[C@H](NC(C)=O)c1cc(Cl)ccc1C1CCN(C(=O)[C@H]2CN(C(C)(C)C)C[C@@H]2c2ccc(Cl)cc2Cl)CC1	IC50	0.5 nM
CC[C@H](NC(C)=O)c1cc(Cl)ccc1C1CCN(C(=O)[C@H]2CN(C(C)(C)C)C[C@@H]2c2ccc(Br)cc2F)CC1	IC50	1.5 nM
